tested on: LNCaP tumor-transplanted mouse; assay: Internal radioactivity distribution using LNCaP tumor-transplanted mouse; type: in vivo; conditions: 24 h after administration
# reported Intestine; entries follow
Supply the numeric figure in % ID/g, leaving out any unit text.

Please review the entries below; each comes with its answer.
input: Entry O=C([O-])CN1CCN(C(CCC(=O)NCCC(=O)N2Cc3ccccc3-c3c(nnn3CCOCCOCCOCCOCCC(=O)NCCCC[C@H](NC(=O)N[C@@H](CCC(=O)O)C(=O)O)C(=O)O)-c3ccccc32)C(=O)[O-])CCN(CC(=O)[O-])CCN(C(CCC(=O)N[C@@H](CCCCNC(=O)CCCc2ccc(I)cc2)C(=O)O)C(=O)[O-])CC1.[111In+3] (stereo partly shown) [[^111In]In-PtDA] , system LNCaP tumor-transplanted mouse: what Intestine was measured?
output: 1.52

input: Entry O=C([O-])CN(CCN(CCc1ccc(NC(=O)[C@H](CCCCNC(=O)CCC(=O)NCCCC[C@H](NC(=O)N[C@@H](CCC(=O)O)C(=O)O)C(=O)O)NC(=O)CCCc2ccc(I)cc2)cc1)CCN(CC(=O)[O-])Cc1cccc(C(=O)[O-])n1)Cc1cccc(C(=O)[O-])n1.[111In+3] [[^111In]In-Neunpa-2] , system LNCaP tumor-transplanted mouse: what Intestine was measured?
output: 0.68

input: Entry O=C([O-])CN(Cc1cccc(C(=O)[O-])n1)C[C@H](Cc1ccc(NC(=O)CCCCCNC(=O)CCC(=O)NCCCC[C@H](NC(=O)N[C@@H](CCC(=O)O)C(=O)O)C(=O)O)cc1)N(CC(=O)[O-])Cc1cccc(C(=O)[O-])n1.[111In+3] [[^111In]In-Octapa-1, reference compound] , system LNCaP tumor-transplanted mouse: what Intestine was measured?
output: 0.27

input: Entry O=C([O-])CN1CCN(C(CCC(=O)NCCCC[C@H](NC(=O)N[C@@H](CCC(=O)O)C(=O)O)C(=O)O)C(=O)[O-])CCN(CC(=O)[O-])CCN(C(CCC(=O)Nc2ccccc2)C(=O)[O-])CC1.[111In+3] (stereo partly shown) [[^111In]In-PSMA-DB, reference compound] , system LNCaP tumor-transplanted mouse: what Intestine was measured?
output: 1.00

input: Entry O=C([O-])CN1CCN(C(CCC(=O)NCCCC[C@H](NC(=O)N[C@@H](CCC(=O)O)C(=O)O)C(=O)O)C(=O)[O-])CCN(CC(=O)[O-])CCN(C(CCC(=O)N[C@@H](CCCCNC(=O)CCCc2ccc(I)cc2)C(=O)O)C(=O)[O-])CC1.[111In+3] (stereo partly shown) [[^111In]In-PSMA-DA1] , system LNCaP tumor-transplanted mouse: what Intestine was measured?
output: 1.53

Further cases:
input: Entry O=C([O-])CN(Cc1cccc(C(=O)[O-])n1)C[C@H](Cc1ccc(NC(=O)[C@H](CCCCNC(=O)CCC(=O)NCCCC[C@H](NC(=O)N[C@@H](CCC(=O)O)C(=O)O)C(=O)O)NC(=O)CCCc2ccc(I)cc2)cc1)N(CC(=O)[O-])Cc1cccc(C(=O)[O-])n1.[111In+3] [[^111In]In-Octapa-2] , system LNCaP tumor-transplanted mouse: what Intestine was measured?
output: 0.82

input: Entry O=C(O)CC[C@H](NC(=O)N[C@@H](CCCCNC(=O)[C@H](Cc1ccc2ccccc2c1)NC(=O)[C@H]1CC[C@H](CNC(=O)CCC(C(=O)O)N2CCN(CC(=O)O)CCN(C(CCC(=O)N[C@@H](CCCCNC(=O)CCCc3ccc(I)cc3)C(=O)O)C(=O)O)CCN(CC(=O)O)CC2)CC1)C(=O)O)C(=O)O (stereo partly shown) [[^111In]In-PSMA-NAT-DA1, metal not drawn] , system LNCaP tumor-transplanted mouse: what Intestine was measured?
output: 1.26

----------
test system: LNCaP tumor-transplanted mouse; assay: Internal radioactivity distribution using LNCaP tumor-transplanted mouse; type: in vivo; details: 4 h after administration
# reported Spleen; entries follow
Supply the numeric figure in % ID/g, leaving out any unit text.

input: Entry O=C([O-])CN(CCN(CCc1ccc(NC(=O)CCCCCNC(=O)CCC(=O)NCCCC[C@H](NC(=O)N[C@@H](CCC(=O)O)C(=O)O)C(=O)O)cc1)CCN(CC(=O)[O-])Cc1cccc(C(=O)[O-])n1)Cc1cccc(C(=O)[O-])n1.[111In+3] [[^111In]In-Neunpa-1, reference compound] , system LNCaP tumor-transplanted mouse: what Spleen was measured?
output: 4.76

input: Entry O=C([O-])CN(Cc1cccc(C(=O)[O-])n1)C[C@H](Cc1ccc(NC(=O)[C@H](CCCCNC(=O)CCC(=O)NCCCC[C@H](NC(=O)N[C@@H](CCC(=O)O)C(=O)O)C(=O)O)NC(=O)CCCc2ccc(I)cc2)cc1)N(CC(=O)[O-])Cc1cccc(C(=O)[O-])n1.[111In+3] [[^111In]In-Octapa-2] , system LNCaP tumor-transplanted mouse: what Spleen was measured?
output: 13.2

input: Entry O=C(O)CC[C@H](NC(=O)N[C@@H](CCCCNC(=O)[C@H](Cc1ccc2ccccc2c1)NC(=O)[C@H]1CC[C@H](CNC(=O)CCC(C(=O)O)N2CCN(CC(=O)O)CCN(C(CCC(=O)N[C@@H](CCCCNC(=O)CCCc3ccc(I)cc3)C(=O)O)C(=O)O)CCN(CC(=O)O)CC2)CC1)C(=O)O)C(=O)O (stereo partly drawn) [[^111In]In-PSMA-NAT-DA1, metal not drawn] , system LNCaP tumor-transplanted mouse: what Spleen was measured?
output: 23.0

----------
# reported Intestine; entries follow
tested on: LNCaP tumor-transplanted mouse; assay: Internal radioactivity distribution using LNCaP tumor-transplanted mouse; assay type: in vivo; settings: 4 h after administration
Supply the numeric figure in % ID/g, leaving out any unit text.

Please review the entries below; each comes with its answer.
input: Looking for the measured Intestine of O=C([O-])CN(Cc1cccc(C(=O)[O-])n1)C[C@H](Cc1ccc(NC(=O)[C@H](CCCCNC(=O)CCC(=O)NCCCC[C@H](NC(=O)N[C@@H](CCC(=O)O)C(=O)O)C(=O)O)NC(=O)COCCOCCOCC(=O)N[C@@H](CCCCNC(=O)CCCc2ccc(I)cc2)C(=O)O)cc1)N(CC(=O)[O-])Cc1cccc(C(=O)[O-])n1.[111In+3] [[^111In]In-Octapa-3] , can you help?
output: 3.23

input: Looking for the measured Intestine of O=C([O-])CN(CCN(CCc1ccc(NC(=O)CCCCCNC(=O)CCC(=O)NCCCC[C@H](NC(=O)N[C@@H](CCC(=O)O)C(=O)O)C(=O)O)cc1)CCN(CC(=O)[O-])Cc1cccc(C(=O)[O-])n1)Cc1cccc(C(=O)[O-])n1.[111In+3] [[^111In]In-Neunpa-1, reference compound] , can you help?
output: 0.66

Further cases:
input: Looking for the measured Intestine of O=C([O-])CN1CCN(C(CCC(=O)NCCCC[C@H](NC(=O)N[C@@H](CCC(=O)O)C(=O)O)C(=O)O)C(=O)[O-])CCN(CC(=O)[O-])CCN(C(CCC(=O)Nc2ccccc2)C(=O)[O-])CC1.[111In+3] (some centres unmarked) [[^111In]In-PSMA-DB, reference compound] , can you help?
output: 1.05

input: Looking for the measured Intestine of O=C([O-])CN(Cc1cccc(C(=O)[O-])n1)C[C@H](Cc1ccc(NC(=O)CCCCCNC(=O)CCC(=O)NCCCC[C@H](NC(=O)N[C@@H](CCC(=O)O)C(=O)O)C(=O)O)cc1)N(CC(=O)[O-])Cc1cccc(C(=O)[O-])n1.[111In+3] [[^111In]In-Octapa-1, reference compound] , can you help?
output: 3.50

input: Looking for the measured Intestine of O=C([O-])CN(CCN(CCc1ccc(NC(=O)[C@H](CCCCNC(=O)CCC(=O)NCCCC[C@H](NC(=O)N[C@@H](CCC(=O)O)C(=O)O)C(=O)O)NC(=O)CCCc2ccc(I)cc2)cc1)CCN(CC(=O)[O-])Cc1cccc(C(=O)[O-])n1)Cc1cccc(C(=O)[O-])n1.[111In+3] [[^111In]In-Neunpa-2] , can you help?
output: 1.05

input: Looking for the measured Intestine of O=C([O-])CN(Cc1cccc(C(=O)[O-])n1)C[C@H](Cc1ccc(NC(=O)[C@H](CCCCNC(=O)CCC(=O)NCCCC[C@H](NC(=O)N[C@@H](CCC(=O)O)C(=O)O)C(=O)O)NC(=O)CCCc2ccc(I)cc2)cc1)N(CC(=O)[O-])Cc1cccc(C(=O)[O-])n1.[111In+3] [[^111In]In-Octapa-2] , can you help?
output: 1.65

input: Looking for the measured Intestine of O=C(O)CC[C@H](NC(=O)N[C@@H](CCCCNC(=O)[C@H](Cc1ccc2ccccc2c1)NC(=O)[C@H]1CC[C@H](CNC(=O)CCC(C(=O)O)N2CCN(CC(=O)O)CCN(C(CCC(=O)N[C@@H](CCCCNC(=O)CCCc3ccc(I)cc3)C(=O)O)C(=O)O)CCN(CC(=O)O)CC2)CC1)C(=O)O)C(=O)O (some centres unmarked) [[^111In]In-PSMA-NAT-DA1, metal not drawn] , can you help?
output: 3.47

input: Looking for the measured Intestine of O=C([O-])CN1CCN(C(CCC(=O)NCCCC[C@H](NC(=O)N[C@@H](CCC(=O)O)C(=O)O)C(=O)O)C(=O)[O-])CCN(CC(=O)[O-])CCN(C(CCC(=O)N[C@@H](CCCCNC(=O)CCCc2ccc(I)cc2)C(=O)O)C(=O)[O-])CC1.[111In+3] (some centres unmarked) [[^111In]In-PSMA-DA1] , can you help?
output: 3.17
